The measurements presented in this section are drawn from patent US20180237497A1.

# Target Of Assay: T1, human IGF2^1-67 (mature insulin-like growth factor 2) (human, UniProt P01344 25-91, biotinylated (site not stated) where immobilised on the chip (Tables 1-4))
# T1 construct: mature; also called mature IGF2; biotinylated IGF2
# T1 sequence (P01344 25-91): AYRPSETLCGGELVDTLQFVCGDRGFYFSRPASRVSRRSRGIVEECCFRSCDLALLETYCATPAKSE
# Assay Protocol: SPR kinetic, biotin-IGF2 on chip, pH 6.5
# Experimental: Measurements were carried out at 25° C. in MES-EP buffer, 20 mM MES pH 6.5, 150 mM NaCl, 3 mM EDTA, and 0.005% (v/v) surfactant P20). Data for KD expressed as mean of each experiment, and means of kon and koff are shown. […]
For each of the binders below, state its pKd.
Notebook: values listed as pKd are -log10 of the concentration (mol/L).

Reported pKd of IGF2R domain 11^WT (receptor, Soluble His6-tagged domain 11 from P. pastoris and/or E. coli; also called wild-type domain 11) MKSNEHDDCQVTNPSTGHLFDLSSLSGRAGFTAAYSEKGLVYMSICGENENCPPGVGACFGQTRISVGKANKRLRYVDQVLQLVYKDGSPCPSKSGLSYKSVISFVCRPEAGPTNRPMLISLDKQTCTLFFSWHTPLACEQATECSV : 7.46

Reported pKd of domain 11^AB3 Q1569R P1597H (receptor, See m5) MKSNEHDDCQVTNPSTGHLFDLSSLSGRAGFTAAYSKSGVVYMSICGENENCPPGVGACFGRTRISVGKANKRLRYVDQVLQLVYKDGSHCPSKSGLSYKSVISFVCRPEAGPTNRPMLISLDKQTCTLFFSWHTPLACEQATECSV : 9.33

Reported pKd of IGF2R domain 11^AB3 (receptor, His6-tagged soluble domain 11; also called domain 11^E1544K, K1545S, L1547V; 1542YSKSGV1547) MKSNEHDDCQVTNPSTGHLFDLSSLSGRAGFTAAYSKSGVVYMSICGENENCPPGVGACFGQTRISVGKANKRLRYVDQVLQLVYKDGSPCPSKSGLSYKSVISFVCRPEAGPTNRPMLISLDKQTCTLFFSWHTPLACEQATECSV : 7.93

Reported pKd of domain 11^AB3 Q1569R P1597H S1602H (receptor, See m5) MKSNEHDDCQVTNPSTGHLFDLSSLSGRAGFTAAYSKSGVVYMSICGENENCPPGVGACFGRTRISVGKANKRLRYVDQVLQLVYKDGSHCPSKHGLSYKSVISFVCRPEAGPTNRPMLISLDKQTCTLFFSWHTPLACEQATECSV : 9.40

Reported pKd of domain 11^AB5 Q1569R P1597H G1603K (receptor, See m5) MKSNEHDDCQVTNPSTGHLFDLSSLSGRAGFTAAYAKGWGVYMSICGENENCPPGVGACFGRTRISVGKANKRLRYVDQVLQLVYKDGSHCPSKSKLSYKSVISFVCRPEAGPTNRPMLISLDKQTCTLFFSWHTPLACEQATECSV : 9.16

Reported pKd of domain 11^AB3 Q1569R P1597H S1602H G1603K (receptor, See m5) MKSNEHDDCQVTNPSTGHLFDLSSLSGRAGFTAAYSKSGVVYMSICGENENCPPGVGACFGRTRISVGKANKRLRYVDQVLQLVYKDGSHCPSKHKLSYKSVISFVCRPEAGPTNRPMLISLDKQTCTLFFSWHTPLACEQATECSV : 9.37
